- targetSystem: NADPH oxidase 5 (Homo sapiens)
- experimentalDetails: compounds shifting NOX5 Amplex Red fluorescence – cell-based, HEK293-NOX5, NOX inhibitor project, primary screen (AID 1161)
- recordedConditions: HEK293-NOX5, ionomycin, 45 min, higher = more signal
# z-score >= -0.3 gives Y, anything below gives N

compound	targetSystem	classAssignment
CCCCC[C@H]1OC[C@@]23C=C(Br)[C@@H](CC12)[C@@]1(CO1)C3=O (stereo partly drawn)	NADPH oxidase 5 (Homo sapiens)	Y
COC(=O)C1=CC(CCCO)=CC(c2cccs2)N(C)C=C1C(=O)OC (stereo not drawn)	NADPH oxidase 5 (Homo sapiens)	Y
C=CC[C@@H](OC(=O)Nc1ccc(SC)cc1)c1ccc(O)c(F)c1	NADPH oxidase 5 (Homo sapiens)	N
C=C(C(=O)CC[C@H](OC(=O)c1ccccc1-c1ccccc1C(=O)O)c1cccc(OCCO)c1)C(C)C	NADPH oxidase 5 (Homo sapiens)	N
O=C1N(CCS(=O)(=O)c2ccccc2)c2ccccc2[C@H]2OC(c3ccc(OCCCO)cc3)=N[C@@]12Cc1ccccc1	NADPH oxidase 5 (Homo sapiens)	Y
Cc1cc(C)c(C(O)C2C=CC3C(=O)N(c4ccccc4)C(=O)C3N2Nc2ccccc2F)c(C)c1 (stereo not drawn)	NADPH oxidase 5 (Homo sapiens)	N
CCOC(=O)C[C@H]1[C@H](OC(=O)c2ccc(C(=O)c3ccccc3)cc2)[C@@H](NC(=O)c2ccc(-c3ccccc3)cc2)c2cc(OCCCO)ccc2N1C(=O)Cc1ccc(OC)cc1	NADPH oxidase 5 (Homo sapiens)	Y
O=C(C1N=C(c2ccc(OCCCO)cc2)N(c2ccccc2)O1)N1CCCCC1 (stereo not drawn)	NADPH oxidase 5 (Homo sapiens)	N
